Where do these numbers come from? They come from patent US20230331827A1.

test system: trypsin; test: Phage TRF binding assay on immobilised biotinylated trypsin (monoclonal phage ELISA); conditions: EETI-II in 5-3 frame, value in brackets after clone name

MOLECULE	ELISA signal from monoclonal phage ELISA
F01: KnotBody with alternative 5-3 framing of EETI-II, VL CDR2 (protein, F01 (101798), KnotBody with alternative 5-3 framing of EETI-II, VL CDR2) DIQMTQSPSSLSASVGDRVTITCRASQSISSYLNWYQQKPGKAPKLLIDAAGECGPNGFCGSGSDGGVCPRINMRCKQDSDCLAGCGRDSGVPSRFSGSGSGTDFTLTISSLQPEDFATYYCQQSYSTPWTFGQGTKVEIKRT	F01
